The values you see were collected from patent US20220242850A1.

SYSTEM_TESTED: UniProt:P25098
PROTOCOL_SUMMARY: GRK2 Transcreener Assay
Format: biochemical
CONDITION_INFO: 10 nM GRK2, 10 uM ATP, 150 uM peptide substrate
OUTCOME_MEASURE: IC50 (nM)

| COMPOUND | READING_UNIT | RESULT_OPERATOR | MEASURED_VALUE |
| --- | --- | --- | --- |
| O=C(O)COc1cccc(Cn2ncc3ccc(-c4cn[nH]c4)cc3c2=O)c1 | nM | = | 8 |
| O=c1c2cc(-c3cn[nH]c3)ccc2cnn1Cc1ccccc1 | nM | = | 300 |
| O=C(O)CCNC(=O)c1cccc(Cn2ncc3ccc(-c4cn[nH]c4)cc3c2=O)c1 | nM | = | 520 |
| C[C@H](c1cccc(OCCOC2CC2)c1)n1ncc2ccc(-c3cn[nH]c3)cc2c1=O (single isomer, unassigned) | nM | = | 660 |
| COc1cccc(Cn2ncc3ccc(-c4ccoc4)cc3c2=O)c1 | nM | = | 900 |
| [2H]C([2H])(Oc1cccc([C@@H](C)n2ncc3ccc(-c4cn[nH]c4)cc3c2=O)c1)C(=O)O (single isomer, unassigned) | nM | = | 190 |
| COc1cccc(Cn2ncc3ccc(-c4ccnc(N)n4)cc3c2=O)c1 | nM | = | 890 |
| [2H]C([2H])(Oc1cccc([C@@H](C)n2ncc3ccc(-c4cn[nH]c4)cc3c2=O)c1)C(=O)OC (single isomer, unassigned) | nM | = | 23 |
| C[C@H](c1cccc(OCC(=O)O)c1)n1ncc2ccc(-c3cn[nH]c3)cc2c1=O (single isomer, unassigned) | nM | = | 47 |
| Cc1n[nH]cc1-c1ccc2cnn([C@H](C)c3cccc(OCC(=O)O)c3)c(=O)c2c1 (single isomer, unassigned) | nM | = | 410 |
| C[C@H](c1cccc(OCC(=O)O)c1)n1ncc2ccc(-c3ccnc(N)n3)cc2c1=O (single isomer, unassigned) | nM | = | 11000 |
| COC(=O)COc1cccc([C@@H](C)n2ncc3ccc(-c4ccnc(N)n4)cc3c2=O)c1 (single isomer, unassigned) | nM | = | 1900 |
| COC(=O)COc1cccc(Cn2ncc3ccc(-c4cn[nH]c4)cc3c2=O)c1 | nM | < | 5 |
| Cc1n[nH]cc1-c1ccc2cnn([C@H](C)c3cccc(OCCOC4CC4)c3)c(=O)c2c1 (single isomer, unassigned) | nM | = | 6200 |

----------
The following compounds are listed with their measured pIC50 values.
SYSTEM_TESTED: UniProt P25098
PROTOCOL_SUMMARY: GRK2 Transcreener Assay
Format: biochemical
CONDITION_INFO: 10 nM GRK2, 10 uM ATP, 150 uM peptide substrate
pIC50: −log10 of the molar value.

| COMPOUND | RESULT_OPERATOR | pIC50 |
| --- | --- | --- |
| CCC(c1cccc(OC)c1)n1ncc2ccc(-c3cn[nH]c3)cc2c1=O (stereo not drawn) [Compound 32] | = | 5.80 |
| O=c1c2cc(-c3cn[nH]c3)ccc2cnn1Cc1cccc(OC(F)(F)F)c1 [Compound 39] | < | 4.30 |
| COc1cccc([C@@H](C)n2ncc3ccc(-c4ccnc(N)n4)cc3c2=O)c1 (single isomer, unassigned) [Compound 33] | = | 5.11 |
| COC(=O)CCNC(=O)c1cccc(Cn2ncc3ccc(-c4cn[nH]c4)cc3c2=O)c1 [Compound 24] | = | 8.13 |
| COC(=O)Cc1cccc(Cn2ncc3ccc(-c4cn[nH]c4)cc3c2=O)c1 [Compound 25] | = | 6.66 |
| O=C(O)Cc1cccc(Cn2ncc3ccc(-c4cn[nH]c4)cc3c2=O)c1 [Compound 23] | = | 5.89 |

----------
SYSTEM_TESTED: UniProt:P25098
PROTOCOL_SUMMARY: hGRK2 LANCE Ultra In Vitro Assay
Type: biochemical
CONDITION_INFO: hGRK2 LANCE Ultra Assay IC50, 10 nM GRK2; ATP 30 or 600 μM (not stated which)
pIC50: −log10 of the molar value.
Each entry below lists one item and its recorded pIC50 value.
OUTCOME_MEASURE: pIC50

| COMPOUND | OUTCOME_MEASURE | RESULT_OPERATOR | MEASURED_VALUE |
| --- | --- | --- | --- |
| C#CCOc1cccc(Cn2ncc3ccc(-c4cn[nH]c4)c(F)c3c2=O)c1 | pIC50 | = | 7.60 |
| COc1cccc(C(C)n2ncc3ccc(-c4cn[nH]c4)cc3c2=O)c1 (single isomer, unassigned) [Compound 16] | pIC50 | = | 7.05 |
| C#CCNC(=O)c1cccc(Cn2ncc3ccc(-c4cn[nH]c4)cc3c2=O)c1 | pIC50 | = | 8.00 |
| COc1cccc(Cn2ncc3ccc(-c4cn[nH]c4)c(F)c3c2=O)c1 | pIC50 | = | 7.96 |
| COc1cccc(Cl)c1CNC(=O)c1cccc(Cn2ncc3ccc(-c4cn[nH]c4)cc3c2=O)c1 | pIC50 | > | 8.30 |
| CC(C)NC(=O)c1cc(Cn2ncc3ccc(-c4cn[nH]c4)cc3c2=O)ccc1F | pIC50 | = | 7.92 |
| O=C(NC1CC1)c1cccc(Cn2ncc3ccc(-c4cn[nH]c4)cc3c2=O)c1 | pIC50 | = | 8.00 |
| O=C(COc1cccc(Cn2ncc3ccc(-c4cn[nH]c4)cc3c2=O)c1)N1CCOCC1 | pIC50 | = | 8.10 |

----------
SYSTEM_TESTED: GRK2 (Homo sapiens)
Sequence (P25098 whole entry): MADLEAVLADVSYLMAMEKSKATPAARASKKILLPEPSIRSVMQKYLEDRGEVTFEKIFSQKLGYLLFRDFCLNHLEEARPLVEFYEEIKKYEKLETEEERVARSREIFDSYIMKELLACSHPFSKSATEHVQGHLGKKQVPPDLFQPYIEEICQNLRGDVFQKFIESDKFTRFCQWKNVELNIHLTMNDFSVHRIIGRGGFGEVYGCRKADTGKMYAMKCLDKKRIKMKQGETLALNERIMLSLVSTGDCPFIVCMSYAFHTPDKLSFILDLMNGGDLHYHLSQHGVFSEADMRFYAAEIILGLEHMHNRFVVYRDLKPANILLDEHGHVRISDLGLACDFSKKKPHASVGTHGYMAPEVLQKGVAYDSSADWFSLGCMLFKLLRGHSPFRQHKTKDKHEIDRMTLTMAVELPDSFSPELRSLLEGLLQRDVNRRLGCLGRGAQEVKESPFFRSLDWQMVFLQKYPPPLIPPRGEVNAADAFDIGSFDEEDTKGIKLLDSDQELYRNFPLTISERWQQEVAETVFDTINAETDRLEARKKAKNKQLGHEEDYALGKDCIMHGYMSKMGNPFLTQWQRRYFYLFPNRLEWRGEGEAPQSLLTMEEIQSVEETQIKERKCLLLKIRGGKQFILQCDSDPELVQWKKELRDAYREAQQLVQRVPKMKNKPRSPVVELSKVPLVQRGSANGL
PROTOCOL_SUMMARY: hGRK2 LANCE Ultra In Vitro Assay
Type: biochemical
CONDITION_INFO: hGRK2 LANCE Ultra Assay IC50, 10 nM GRK2; ATP 30 or 600 μM (not stated which)
pIC50: −log10 of the molar value.
OUTCOME_MEASURE: pIC50

| COMPOUND | OUTCOME_MEASURE | RESULT_OPERATOR | MEASURED_VALUE |
| --- | --- | --- | --- |
| O=C(NC1CC1)c1cc(F)cc(Cn2ncc3ccc(-c4cn[nH]c4)cc3c2=O)c1 | pIC50 | = | 8.20 |
| COc1cccc(C(C)n2ncc3ccc(-c4cn[nH]c4)cc3c2=O)c1 (single isomer, unassigned) [Compound 17] | pIC50 | = | 5.77 |
| COc1cccc(Cn2ncc3ccc(-c4cn[nH]c4)c(C#N)c3c2=O)c1 | pIC50 | = | 7.96 |
| O=C(NC1CC1)c1cc(Cn2ncc3ccc(-c4cn[nH]c4)cc3c2=O)ccc1F | pIC50 | = | 7.74 |
| Cc1cccc(Cl)c1CNC(=O)c1cccc(Cn2ncc3ccc(-c4cn[nH]c4)cc3c2=O)c1 | pIC50 | > | 8.30 |
| COc1cccc(C(C(=O)O)n2ncc3ccc(-c4cn[nH]c4)cc3c2=O)c1 (stereo not shown) | pIC50 | < | 4.70 |
| C#CCCNC(=O)c1cccc(Cn2ncc3ccc(-c4cn[nH]c4)cc3c2=O)c1 | pIC50 | = | 8.26 |
| CN(C)C(=O)COc1cccc(Cn2ncc3ccc(-c4cn[nH]c4)cc3c2=O)c1 | pIC50 | = | 7.89 |
| O=C(NC1CC2CCC1C2)c1cccc(Cn2ncc3ccc(-c4cn[nH]c4)cc3c2=O)c1 (stereo not shown) | pIC50 | = | 8.30 |
| COc1cccc(C(CO)n2ncc3ccc(-c4cn[nH]c4)cc3c2=O)c1 (stereo not shown) | pIC50 | = | 7.48 |
